Test system: S. pneumoniae KBSP11
Assay: MIC against pneumococcus, CAMHB with 5 mass % LHB
Assay type: cell-based, Streptococcus pneumoniae
Conditions: Streptococcus pneumoniae, PRSP
Criterion: MIC strictly under 4 µg/mL. Met: Yes. Not met: No.

Use the examples below as a reference point.
NC1CCN(c2nc3c(cc2F)c(=O)c(C(=O)O)cn3-c2ccc(F)cc2F)C1 (stereo not drawn)
Yes
COCc1cc(=O)n(C2CC2)c2cc(-c3ccc(O)cc3)c(F)cc12
No
O=c1cc(CO)c2cc(F)c(-c3ccc(O)cc3)c(F)c2n1C1CC1
No
Nc1ccc(-c2cc3c(cc2F)c(CO)cc(=O)n3C2CC2)cc1 [J-132CP]
Yes
O=c1cc(CO)c2ccc(-c3ccc(O)cc3)c(F)c2n1C1CC1
No

// query A record lists NCc1cc(=O)n(C2CC2)c2cc(-c3ccc(O)cc3)c(F)cc12 . Is its MIC below 4 µg/mL?
// result Yes

// query Strictly below 4 µg/mL: is that where MIC of NC(=O)c1cc(=O)n(C2CC2)c2cc(-c3ccc(O)cc3)c(F)cc12 sits?
// result No
